Value source: patent US20250186597A1

The molecules listed here are annotated with their Kd.
# target_system: T1, human IL-18BP (Homo sapiens, UniProt O95998)
# T1 construct: His
# T1 sequence (O95998 31-194): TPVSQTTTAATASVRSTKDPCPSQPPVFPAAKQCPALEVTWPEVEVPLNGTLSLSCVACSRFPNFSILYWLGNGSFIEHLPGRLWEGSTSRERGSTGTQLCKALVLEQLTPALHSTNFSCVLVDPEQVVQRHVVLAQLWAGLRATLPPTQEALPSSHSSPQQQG
# procedure_summary: IL-18BP binding alphaLISA assay (Example 4, used in Example 22B)
# study_conditions: IL-18BP AlphaLISA
Express your answer in nM, writing the number without its unit.

molecule | scale_unit | Kd
59 (protein) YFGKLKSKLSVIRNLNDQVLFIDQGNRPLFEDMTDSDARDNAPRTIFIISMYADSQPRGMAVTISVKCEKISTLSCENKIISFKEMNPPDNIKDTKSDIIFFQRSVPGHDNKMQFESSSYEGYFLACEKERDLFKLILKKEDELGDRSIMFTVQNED | nM | 36

Note: attention shifts to another entry.
GET /values?readout=Kd&item= 56 (protein) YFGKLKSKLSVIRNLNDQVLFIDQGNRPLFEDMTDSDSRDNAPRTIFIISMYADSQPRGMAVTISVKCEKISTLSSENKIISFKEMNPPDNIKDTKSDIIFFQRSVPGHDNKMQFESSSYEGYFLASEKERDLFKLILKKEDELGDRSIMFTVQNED
436
